Listed below: nuclei count values for each entry.
Assay: inhibitors of E-selectin induction by TNFa, primary screen, imaging, HUVEC, immunofluorescence, MLSMR starter and 10KST1 sets (AID 487);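 note: 100% = median nuclei count of all wells on the same plate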
Details: HUVEC TNFalpha-induced E-selectin immunofluorescence imaging, at 2 µM; measured here: cell number, toxicity
State just the number; it will be interpreted in %.

Use the examples below as a reference point.
CCOC(=O)C(C)c1nc2ccccc2[nH]c1=O (stereo unspecified) | 164
COC(=O)C1(C)NC(c2cccs2)C2C(=O)N(c3ccccc3F)C(=O)C21 (stereo unspecified) | 119
O=C1OC(N2CCN(C/C=C/c3ccccc3)CC2)c2ccccc21 (stereo unspecified) | 168
Cc1cc(=O)n2nc(N3CCCC(C(=O)N4CCc5ccccc54)C3)sc2n1 (stereo unspecified) | 103
Cc1cc(C)n(-c2nc3nonc3nc2-n2nc(C)cc2C)n1 | 106

Query :: Looking for the measured nuclei count of COc1ccc(C(=O)NCc2nnc(SCC(=O)Nc3cc(C)cc(C)c3)o2)cc1OC , can you help?
Result :: 115

Query :: I would be grateful if you could share the reported nuclei count for O=C(NCc1ccccn1)c1cccs1 .
Result :: 95.7

Query :: Using the record for Cc1c(C#N)c2ccccc2n1CC(=O)N1CCc2ccccc2C1 , report its nuclei count.
Result :: 114

Query :: Sample O=C(CC1Oc2ccc(Cl)cc2NC1=O)NC1CCCCCC1 (stereo unspecified) — what was its nuclei count?
Result :: 100

Query :: For C=CCOn1c(=O)c(-c2ccc(OC)cc2)[n+]([O-])c2ccccc21 , what is its reported nuclei count?
Result :: 148

Query :: Which measured nuclei count value corresponds to O=S(=O)(c1cccs1)N1CCN(Cc2nc3ccccc3s2)CC1 ?
Result :: 90.9

====

Target: Voltage-gated potassium channel subunit beta-2 (Rattus norvegicus) (UniProt P62483)
Sequence (P62483 whole entry, looked up): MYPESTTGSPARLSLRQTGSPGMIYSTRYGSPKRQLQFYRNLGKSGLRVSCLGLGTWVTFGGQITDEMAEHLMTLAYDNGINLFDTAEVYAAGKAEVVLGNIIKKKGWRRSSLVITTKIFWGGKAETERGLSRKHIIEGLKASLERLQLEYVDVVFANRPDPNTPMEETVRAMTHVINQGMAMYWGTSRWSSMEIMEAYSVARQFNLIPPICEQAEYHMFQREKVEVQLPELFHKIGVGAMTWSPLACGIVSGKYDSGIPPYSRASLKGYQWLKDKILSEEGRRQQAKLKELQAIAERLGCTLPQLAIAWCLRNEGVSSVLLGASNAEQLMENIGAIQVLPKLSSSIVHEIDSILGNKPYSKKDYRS
Test: KvBeta positive modulators, primary screen, biochemical, NADPH fluorescence (AID 623);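 note: fluorescence intensity change per second fitted from 20 to 320 s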
Conditions: Recombinant KvBeta, NADPH fluorescence decrease slope, 10 min; at 10 µM; stronger effect = lower value
The source made the active and inactive calls.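 The calls were made as follows: active = NADPH fluorescence slope more negative than the mean of all samples by about 3 SD, 99.7% confidence; inactive = the rest.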
The entries below are paired with their reported NADPH fluorescence slope.

Examples with answers:
O=C1CCCC2=C1C(c1cccc(Br)c1)n1nc(-c3ccco3)nc1N2 (configuration not stated) | -2.2e-05 (inactive)
COc1ccccc1CNS(=O)(=O)c1ccc(NC(C)=O)cc1 | -4.2e-05 (inactive)
O=C(CSc1ncnc2ccccc12)NCCCO | 8.9e-06 (inactive)
O=S(=O)(c1ccccc1)N(CC(O)CN1CCCCC1)c1ccccc1 (configuration not stated) | -2.3e-05 (inactive)
Cc1nc2ccc(C(=O)c3ccccc3)cc2[nH]1 | 2.4e-05 (inactive)
C(=N\c1c(-c2ccccc2)nc2n1CCS2)/c1ccccc1 | -3.7e-05 (inactive)
CN(C)CCCN1C(=O)CSC1c1ccccc1 (configuration not stated) | -3e-05 (inactive)
CC1=C(C(=O)Nc2ccccc2C)C2(CCCC2)C(C(N)=O)C(=O)N1 (configuration not stated) | -4.6e-05 (inactive)

Query :: Fill blank: measured NADPH fluorescence slope of the molecule c1coc(Cn2nnnc2CN2CCN(C3CCCC3)CC2)c1 is ____.
Result :: 2.2e-05 (inactive)

Query :: Request the reported NADPH fluorescence slope associated with CC(=O)C1=C(C)NC(C)=C(C(C)=O)C1c1cccs1
Result :: 2.7e-05 (inactive)

Query :: So what's the measured NADPH fluorescence slope for this one? Cc1ccc2oc(-c3ccccc3C(=O)O)cc(=O)c2c1
Result :: -1.2e-05 (inactive)

Query :: Report NADPH fluorescence slope for Cc1cc(C)cc(C(=O)N2CCC(C(N)=O)CC2)c1 please.
Result :: -4.1e-05 (inactive)

====

Assay: inhibitors of E-selectin induction by TNFa, primary screen, imaging, HUVEC, immunofluorescence, MLSMR starter and 10KST1 sets (AID 487);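 note: 100% = median nuclei count of all wells on the same plate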
Conditions: HUVEC TNFalpha-induced E-selectin immunofluorescence imaging, at 2 µM; measured here: cell number, toxicity
Entries and their measured nuclei count follow.
State the answer as a number, implicitly in %.

Reference set (4 entries):
COc1ccc(Cn2nnnc2C(c2ccccn2)N2CCN(c3cc(Cl)ccc3C)CC2)cc1 (stereo not drawn) | 104
c1coc(-c2nnc(NC3=NCCC3)o2)c1 | 162
Cc1ccccc1NC(=O)CN1CCC(NC(=O)Nc2ccccc2)CC1 | 93
CS(=O)(=O)N1CCCC(C(=O)NCc2ccccc2Cl)C1 (stereo not drawn) | 97.8

Query :: State the recorded nuclei count for this entry: COc1cc2c(N3CCOCC3)cc(O)c(CC(=O)Nc3ccccc3)c2cc1OC
Result :: 101

Query :: State the recorded nuclei count for this entry: CC1(CC(=O)O)C(=O)N=C2C=CC=CN21 (stereo not drawn)
Result :: 97.8

Query :: What nuclei count value was documented for this compound, Nc1c(C(=O)NCc2ccco2)sc2nc(N3CCOCC3)c3c(c12)CCCC3 ?
Result :: 169

Query :: // returns reported nuclei count for input CCOc1ccc(C2C(C#N)=C(N)Oc3cc(C)n(CCN4CCOCC4)c(=O)c32)cc1OCC (stereo not drawn)
Result :: 167

====

Experiment: inhibitors of Chlamydomonas gravitaxis, primary screen, whole organism, Chlamydomonas reinhardtii, WT vs cilia-less mutant, absorbance, 96-well (AID 463189);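 note: 0% = wild type cc124 cells in DMSO and 100% = ciliumless bld1 mutant cells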
Details: OD600 absorbance, 2 days, at 10 µM, stronger effect = higher value
Overview of reported inhibition across a group of molecules:
// note: answer is a bare numeric in %

COC(=O)c1[nH]c2ccc(Cl)cc2c1NC(=O)C1CC1 | -10.7
CCSc1nnc(NC(=O)NCC(F)(F)F)s1 | -11.4
CC(C)Cc1[nH]c(=O)c(C#N)c2c1COC(C)(C)C2 | 23.1
CCCc1cc(NCCCCO)n2c(nc3ccccc32)c1C#N | 26.9
Cc1ccc(S(=O)(=O)/C(C#N)=C/c2c(N3CCN(C)CC3)nc3ccccn3c2=O)cc1 | -9.76
Cc1nc2c(o1)CCc1ccccc1C2N1CCN(C)CC1 (stereo not drawn) | 29.5
CCOC(=O)c1cnn2c1[nH]c(=O)c1ccccc12 | 24.1
CCCC(=O)N1CCc2[nH]c3ccccc3c2C1 | -3.97

Query :: Given the molecule CCOC(=O)C(O)(C1C(=O)CC(C)(C)CC1=O)C(F)(F)F (stereo not drawn) , what is its reported inhibition?
Result :: 3.71

====

Assay: inhibitors of TNFa-induced NFkB p65 translocation, primary screen, imaging, HUVEC, MLSMR starter and 10KST1 sets (AID 438);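 note: compound added about 3h40 before a 20 min TNFalpha stimulation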
Conditions: HUVEC TNFa-induced p65 nuclear translocation; measured here: nuclei count (cytotoxicity indicator), at 2.08 µM
The threshold is inclusive: cell count of exactly 500 counts as class 1; values below receive class 0.

O=C(C1CCCCC1)N1CCC(c2nc3c(nnn3Cc3ccccc3Cl)c(=O)[nH]2)CC1 | class 0
COc1cc(C2C(C(C)=O)=C(O)C(=O)N2c2ccc(Br)cn2)ccc1O (stereo unspecified) | class 0

Query :: Item O=C(O)CCCC(=O)N1CCN(C(c2ccccc2)c2ccccc2)CC1 with cell count of 500 or above?
Result :: class 1

Query :: Record Cc1cccc2cc(CN(CCCO)C(=O)Nc3ccc(Cl)cc3)c(=O)[nH]c12 ; criterion: cell count no lower than 500. Met?
Result :: class 0

Query :: Would you say COc1nc(OC)nc(N2CCC(C(=O)NCc3cccs3)CC2)n1 shows cell count at minimum 500?
Result :: class 1

====

Experiment: inhibitors of mutant huntingtin aggregation, primary screen, imaging, exon1htt(103Q)mCFP cells, high-content imaging (AID 483);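 note: compound exposure lasted 3 days before fixation; percent of the per-plate median nuclei count of sample wells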
Settings: exon1htt(103Q)mCFP cell line, aggregate imaging, at 2 µM; measured here: cell count, toxicity
measured.parameter: nuclei count (%)
Unit % implied. Number only.

CCOC(=O)C1C2C=CC3(CN(c4cccc(Cl)c4)C(=O)C13)O2 (centres undefined) | 105
Cc1ccc(S(=O)(=O)c2cc3c(=O)n4ccccc4nc3n(CC3CCCO3)c2=N)cc1C (centres undefined) | 88.2
CC(=O)N(C)C1(c2nnnn2CCOC(=O)Nc2cccc3ccccc23)CCCC1 | 98.9

Query :: GET /values?readout=nuclei count&item= COc1ccc(-c2nc(CSCC(=O)N3CCc4ccccc4C3)c(C)o2)cc1OC
Result :: 101

Query :: # query: nuclei count of entry C=CCn1c(SCC(=O)Nc2ccccc2OC)nnc1-c1ccco1
Result :: 105

Query :: Entry COC(=O)Cc1c(C)c2ccc(OCC(=O)N3CCOCC3)cc2oc1=O has what nuclei count?
Result :: 113

Query :: # input molecule: CCOc1ccc(NC(=O)Cn2nnc(-c3ccccc3F)n2)cc1 ; wanted: its nuclei count
Result :: 88.3

Query :: Report nuclei count for COC(=O)CCCCCc1ccc(C(C)=O)s1 please.
Result :: 101

Query :: Fill in the blank: the reported nuclei count of CCCCNC(=O)OCCNC(=O)NC is ____.
Result :: 100

Query :: Given O=C(COc1ccc(=O)n(-c2ccccc2)n1)Nc1ccccc1 , state its recorded nuclei count.
Result :: 114

Query :: I'd like to know its nuclei count. The molecule in question is CCn1c2ccccc2c2cc(Nc3cc(C)nc4ncnn34)ccc21
Result :: 3

Query :: Quick check: nuclei count of O=C(NCc1ccco1)C1(S(=O)(=O)c2ccc(Cl)cc2)CC1 ?
Result :: 120

Query :: Find the recorded nuclei count belonging to COCCn1c(=N)c(C(=O)NCCc2ccccc2)cc2c(=O)n3cccc(C)c3nc21 and report it.
Result :: 102

Query :: So what does the record say about nuclei count for Cc1cccnc1-n1c(CCN2C(=O)c3ccccc3C2=O)nc2ccccc2c1=O ?
Result :: 84.4

Query :: Given the molecule NC(=O)c1ccccc1NC(=O)CCCN1C(=O)CCC1=O , what is its reported nuclei count?
Result :: 104

Query :: Bench note: what nuclei count did CCOC(=O)c1ccc(NC(=O)CSCc2ccco2)cc1 show?
Result :: 108

Query :: Give the measured nuclei count of CC(=O)N1CCN=C1SCc1ccc(Br)cc1 .
Result :: 95.1

Query :: Could you tell me which nuclei count is on file for CC(=O)c1ccccc1Oc1nc(CN2CCOCC2)nc2scc(-c3cccs3)c12 ?
Result :: 99.2

Query :: Param item = O=C(COC(=O)C1CC(=O)N(c2ccccc2)C1)c1ccccc1 (centres undefined) ; retrieve measured nuclei count.
Result :: 99.9
